Reference source: patent US20240208992A1

Molecular target: human F508del-CFTR (Homo sapiens, UniProt P13569, DEL508-508)
Sequence (P13569 with tags, fused parts or gaps DEL508-508): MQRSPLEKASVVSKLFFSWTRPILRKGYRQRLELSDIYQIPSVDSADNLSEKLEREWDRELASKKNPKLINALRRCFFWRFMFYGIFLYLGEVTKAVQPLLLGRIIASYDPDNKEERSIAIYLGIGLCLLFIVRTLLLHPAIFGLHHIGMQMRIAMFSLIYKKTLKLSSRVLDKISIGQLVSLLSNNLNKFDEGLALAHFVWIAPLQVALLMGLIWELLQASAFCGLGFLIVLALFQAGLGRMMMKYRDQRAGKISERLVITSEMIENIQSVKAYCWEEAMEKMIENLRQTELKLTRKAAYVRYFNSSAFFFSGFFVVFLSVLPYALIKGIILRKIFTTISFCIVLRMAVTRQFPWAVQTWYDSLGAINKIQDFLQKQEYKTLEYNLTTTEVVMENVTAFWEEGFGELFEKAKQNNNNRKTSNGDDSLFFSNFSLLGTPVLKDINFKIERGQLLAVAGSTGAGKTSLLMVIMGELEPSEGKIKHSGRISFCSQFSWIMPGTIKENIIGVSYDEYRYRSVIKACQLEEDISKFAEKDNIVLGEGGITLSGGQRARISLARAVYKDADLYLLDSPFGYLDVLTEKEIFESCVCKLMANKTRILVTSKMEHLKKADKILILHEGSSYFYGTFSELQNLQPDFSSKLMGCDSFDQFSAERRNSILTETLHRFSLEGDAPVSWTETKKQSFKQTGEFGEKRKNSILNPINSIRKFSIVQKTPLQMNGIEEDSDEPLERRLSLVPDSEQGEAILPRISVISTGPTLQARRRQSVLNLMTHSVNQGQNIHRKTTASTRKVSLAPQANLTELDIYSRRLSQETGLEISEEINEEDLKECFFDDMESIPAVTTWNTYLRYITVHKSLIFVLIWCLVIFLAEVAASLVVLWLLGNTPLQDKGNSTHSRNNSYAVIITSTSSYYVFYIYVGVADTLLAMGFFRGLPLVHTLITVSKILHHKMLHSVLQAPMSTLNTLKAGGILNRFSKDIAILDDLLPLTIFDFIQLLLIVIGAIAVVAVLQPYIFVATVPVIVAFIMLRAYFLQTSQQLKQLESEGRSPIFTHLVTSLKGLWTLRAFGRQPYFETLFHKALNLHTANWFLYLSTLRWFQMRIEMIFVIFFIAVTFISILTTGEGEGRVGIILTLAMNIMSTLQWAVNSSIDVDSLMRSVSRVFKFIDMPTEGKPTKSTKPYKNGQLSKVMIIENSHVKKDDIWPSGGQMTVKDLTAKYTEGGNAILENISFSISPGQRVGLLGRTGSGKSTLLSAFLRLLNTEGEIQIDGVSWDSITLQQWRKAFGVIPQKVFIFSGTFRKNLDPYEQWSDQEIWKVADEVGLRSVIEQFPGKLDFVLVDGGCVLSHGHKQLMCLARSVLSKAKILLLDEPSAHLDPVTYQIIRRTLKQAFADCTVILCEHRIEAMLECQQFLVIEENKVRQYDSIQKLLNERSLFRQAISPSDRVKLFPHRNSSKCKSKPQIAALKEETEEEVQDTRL
Test: F508del-CFTR cell surface expression (corrector activity), DiscoveRx ß-galactosidase complementation chemiluminescence assay in recombinant U2OS cell line
Conditions: U2OS, in relation to the Emax of the corrector lumacaftor (=100%); U2OS cells, 16h compound incubation; arithmetic mean
experimental-endpoint: Emax (%)

Task: Look at this compound and give its reported Emax. `COc1noc(CCNC(=O)[C@@H]2CC(=O)N(C)[C@@H](CC(C)C)C(=O)N(C)C3(CC3)C(=O)N[C@H](Cc3ccccc3)COc3cnc4ccccc4c3C(=O)N2)n1`
Output: 318

Task: Look at this compound and give its reported Emax. `COc1nccc2c1C(=O)N[C@H](C(=O)NCCn1nc3ccccc3n1)CC(=O)N(C)[C@@H](CC(C)C)C(=O)N1CCCC[C@@H]1C(=O)N[C@H](Cc1ccccc1)CO2`
Output: 367

Task: Look at this compound and give its reported Emax. `CCOCC[C@@H]1C(=O)N[C@H](Cc2ccccc2)COc2ccc3ncc(F)cc3c2C(=O)N[C@H](C(=O)NCCn2nnc(C3CC3)n2)CC(=O)N(C)[C@@H](CC(C)C)C(=O)N1C`
Output: 427

Task: Look at this compound and give its reported Emax. `CCOCC[C@@H]1C(=O)N[C@H](Cc2ccccc2)COc2ccc3ncc(F)cc3c2C(=O)N[C@H](C(=O)NCCc2cc(C)no2)CC(=O)N(C)[C@@H](CC(C)C)C(=O)N1C`
Output: 431

Task: Look at this compound and give its reported Emax. `COc1cc(CCNC(=O)[C@@H]2CC(=O)N(C)[C@@H](CC(C)C)C(=O)N(C)[C@H](Cc3nc(C(F)(F)F)no3)C(=O)N[C@H](Cc3ccccc3)COc3cc(C)c4ncccc4c3C(=O)N2)on1`
Output: 430

---

Molecular target: human F508del-CFTR (Homo sapiens, UniProt P13569, DEL508-508)
Test: F508del-CFTR cell surface expression (corrector activity), DiscoveRx ß-galactosidase complementation chemiluminescence assay in recombinant U2OS cell line
Conditions: EC50, F508del-CFTR cell surface expression, U2OS cells, 16h compound incubation; geomean of several measurements
experimental-endpoint: EC50 (µM)

Examples from the recorded data:
Task: Look at this compound and give its reported EC50. COc1cc(CCNC(=O)[C@@H]2CC(=O)N(C)[C@@H](CC(C)C)C(=O)N(C)[C@H](Cc3noc(C(C)(C)C)n3)C(=O)N[C@H](Cc3ccccc3)COc3ccc4ncc(F)cc4c3C(=O)N2)on1 [Example 972]
Output: 0.128

Task: Look at this compound and give its reported EC50. COc1cc(CCNC(=O)[C@@H]2CC(=O)N(C)[C@@H](CC(C)C)C(=O)N(C)[C@H](CC(F)(F)F)C(=O)N[C@H](Cc3ccccc3)COc3ccc4cnc(C)cc4c3C(=O)N2)on1 [Example 957]
Output: 0.192

Task: Look at this compound and give its reported EC50. COc1noc(CCNC(=O)[C@@H]2CC(=O)N(C)[C@@H](CC(C)C)C(=O)N(C)C3(CC3)C(=O)N[C@H](Cc3ccccc3)COc3ccc4ncc(F)cc4c3C(=O)N2)n1 [Example 911]
Output: 0.531

(P) COc1cc(CCNC(=O)[C@@H]2CC(=O)N(C)[C@@H](CC(C)C)C(=O)N(C)[C@H](Cc3nc(C(F)(F)F)no3)C(=O)N[C@H](Cc3ccccc3)COc3cc(C)c4ncccc4c3C(=O)N2)on1 [Example 909]
(Q) COc1cc(CCNC(=O)[C@@H]2CC(=O)N(C)[C@@H](CC(C)C)C(=O)N(C)[C@H](CCc3nc(C4CCCC4)no3)C(=O)N[C@H](Cc3ccccc3)COc3ccnc(OC)c3C(=O)N2)on1 [Example 884]
Task: Could you point out whether the larger EC50 belongs to P or to Q ? Could you answer with the label of the item you picked?
Output: Q
(Q: 0.096 µM, P: 0.017 µM)

---

Target: human F508del-CFTR (Homo sapiens, UniProt P13569, DEL508-508)
Assay: F508del-CFTR cell surface expression (corrector activity), DiscoveRx ß-galactosidase complementation chemiluminescence assay in recombinant U2OS cell line
Details: U2OS, in relation to the Emax of the corrector lumacaftor (=100%); U2OS cells, 16h compound incubation; arithmetic mean
experimental-endpoint: Emax (%)

Task: Look at this compound and give its reported Emax. `COc1cccc(CCNC(=O)[C@@H]2CC(=O)N(C)[C@@H](CC(C)C)C(=O)N3CCN(c4ccc(F)cn4)C[C@@H]3C(=O)N[C@H](Cc3ccccc3)COc3cnc4ccccc4c3C(=O)N2)c1`
Output: 322

Task: Look at this compound and give its reported Emax. `COc1noc(CCNC(=O)[C@@H]2CC(=O)N(C)[C@@H](CC(C)C)C(=O)N(C)[C@H](Cc3nc(-c4ccc(F)cn4)no3)C(=O)N[C@H](Cc3ccccc3)COc3ccc4ncc(F)cc4c3C(=O)N2)n1`
Output: 470

Task: Look at this compound and give its reported Emax. `COc1nccc2c1C(=O)N[C@H](C(=O)NCC(F)(F)c1nc(C3CC3)no1)CC(=O)N(C)[C@@H](CC(C)C)C(=O)N1CCCC[C@@H]1C(=O)N[C@H](Cc1ccccc1)CO2`
Output: 231

(I) COc1cc(CCNC(=O)[C@@H]2CC(=O)N(C)[C@@H](CC(C)C)C(=O)N(C)[C@H](CC3CCC(F)(F)CC3)C(=O)N[C@H](Cc3ccccc3)COc3ccnc(OC)c3C(=O)N2)on1
(II) COc1cc(CCNC(=O)[C@@H]2CC(=O)N(C)[C@@H](CC(C)C)C(=O)N(C)[C@H](Cc3nc(C(F)(F)F)no3)C(=O)N[C@H](Cc3ccccc3)COc3cc(C)c4c(ccc[n+]4[O-])c3C(=O)N2)on1
Task: Could you point out whether the larger Emax belongs to I or to II ? Could you answer with the label of the item you picked?
Output: II
(II: 530%, I: 326%)

---

Biological target: human F508del-CFTR (Homo sapiens, UniProt P13569, DEL508-508)
Test: F508del-CFTR cell surface expression (corrector activity), DiscoveRx ß-galactosidase complementation chemiluminescence assay in recombinant U2OS cell line
Conditions: U2OS, in relation to Emax of corrector lumacaftor (=100%); arithmetic mean values
experimental-endpoint: Emax (%)

Examples from the recorded data:
Task: Could you share what Emax was measured for Cc1cc(CCNC(=O)[C@@H]2CC(=O)N(C)[C@@H](CC(C)C)C(=O)N(C[C@H]3CCCCO3)CC(=O)N[C@H](Cc3ccccc3)COc3cnc4ccccc4c3C(=O)N2)on1 [Example 445] , tested on human F508del-CFTR (Homo sapiens, UniProt P13569, DEL508-508)?
Output: 194

Task: Could you share what Emax was measured for Cc1cc(CCNC(=O)[C@@H]2CC(=O)N(C)[C@@H](CC(C)C)C(=O)N(C)[C@H](COCc3ccccc3)C(=O)N[C@H](Cc3ccccc3)COc3ccc4ccccc4c3C(=O)N2)on1 [Example 714] , tested on human F508del-CFTR (Homo sapiens, UniProt P13569, DEL508-508)?
Output: 410

Task: Could you share what Emax was measured for COc1cccc(CCNC(=O)[C@@H]2CC(=O)N(C)[C@@H](CC(C)C)C(=O)N3CCN(CC(C)C)C[C@@H]3C(=O)N[C@H](Cc3ccccc3)COc3cccc(OC)c3C(=O)N2)c1 [Example 612] , tested on human F508del-CFTR (Homo sapiens, UniProt P13569, DEL508-508)?
Output: 298

(I) Cc1ccc2c(c1)OC[C@@H](Cc1ccccc1)NC(=O)CN(C)C(=O)[C@H](CC(C)C)N(C)C(=O)C[C@@H](C(=O)NCCc1ccc3c(c1)OCO3)NC2=O [Example 583]
(II) COc1nccc2c1C(=O)N[C@H](C(=O)NCCc1cc(C)no1)CC(=O)N(C)[C@@H](CC(C)C)C(=O)N1CCN(c3ccccc3)C[C@H]1C(=O)N[C@H](Cc1ccccc1)CO2 [Example 550]
Task: Could you point out whether the larger Emax belongs to I or to II ? Could you answer with the label of the item you picked?
Output: II

---

Biological target: human F508del-CFTR (Homo sapiens, UniProt P13569, DEL508-508)
Test: F508del-CFTR cell surface expression (corrector activity), DiscoveRx ß-galactosidase complementation chemiluminescence assay in recombinant U2OS cell line;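 also: U2OS cells co-expressing ProLink-tagged F508del-CFTR and a membrane-anchored enzyme acceptor, where more surface CFTR restores β-galactosidase activity measured by chemiluminescence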
Conditions: EC50, F508del-CFTR cell surface expression, U2OS cell line, 16h compound incubation; geomean values
experimental-endpoint: EC50 (µM)

Task: Look at this molecule and give its reported EC50. `CCc1nc(CCNC(=O)[C@@H]2CC(=O)N(C)[C@@H](CC(C)C)C(=O)N3CCCC[C@@H]3C(=O)N[C@H](Cc3ccccc3)COc3cnc4ccccc4c3C(=O)N2)no1`
Output: 0.327

Task: Look at this molecule and give its reported EC50. `[2H]C1([2H])Oc2ccc3c(c2O1)C(=O)N[C@H](C(=O)NCCc1cccc(OC)c1)CC(=O)N(C)[C@@H](CC(C)C)C(=O)N(C)CC(=O)N[C@H](Cc1ccccc1)CO3`
Output: 0.666

Task: Look at this molecule and give its reported EC50. COc1cc2c(cc1OC)C(=O)N[C@H](C(=O)NCCc1ccc3c(c1)OCO3)CC(=O)N(C)[C@@H](CC(C)C)C(=O)N(CC[C@H]1CCCCO1)CC(=O)N[C@H](Cc1ccccc1)CO2 (racemic)
Output: 0.26

Task: Look at this molecule and give its reported EC50. `Cc1noc(C)c1CCNC(=O)[C@@H]1CC(=O)N(C)[C@@H](CC(C)C)C(=O)N2CCOC[C@@H]2C(=O)N[C@H](Cc2ccccc2)COc2ccc3ccccc3c2C(=O)N1`
Output: 0.862

Task: Look at this molecule and give its reported EC50. `Cc1cccc(F)c1CCNC(=O)[C@@H]1CC(=O)N(C)[C@@H](CC(C)C)C(=O)N2CCCC[C@@H]2C(=O)N[C@H](Cc2ccccc2)COc2cnc3ccccc3c2C(=O)N1`
Output: 0.211

Task: Look at this molecule and give its reported EC50. `CC(C)C[C@H]1C(=O)N2CCCC[C@@H]2C(=O)N[C@H](Cc2ccccc2)COc2cnc3ccccc3c2C(=O)N[C@H](C(=O)NCCc2ccns2)CC(=O)N1C`
Output: 0.499

(A) COc1cccc2c1C(=O)N[C@H](C(=O)NCCC1CCC(C)(C)CO1)CC(=O)N(C)[C@@H](CC(C)C)C(=O)N(CCC1CCCCC1)CC(=O)N[C@H](Cc1ccccc1)CO2 (mixture of isomers)
(B) Cc1ccc(F)c(CCNC(=O)[C@@H]2CC(=O)N(C)[C@@H](CC(C)C)C(=O)N3CCCC[C@@H]3C(=O)N[C@H](Cc3ccccc3)COc3cnc4ccccc4c3C(=O)N2)c1F
(C) CN1C(=O)C[C@@H](C(=O)NCCc2ccc3c(c2)OCO3)NC(=O)c2c(ccc3ccccc23)OC[C@@H](Cc2ccccc2)NC(=O)CN(CCC2CCCCC2)C(=O)[C@@H]1CC1CCCCC1 (racemic)
Task: Ordering criterion: EC50; begin with the maximum. List each label, following the requested order.
Output: A, B, C

(I) CC(C)C[C@H]1C(=O)N2CCCC[C@@H]2C(=O)N[C@H](Cc2ccccc2)COc2cnc3ccccc3c2C(=O)N[C@H](C(=O)NCCc2cnn(C3CC3)c2)CC(=O)N1C
(II) CC(C)C[C@H]1C(=O)N2CCOC[C@@H]2C(=O)N[C@H](Cc2ccccc2)COc2cnc3ccccc3c2C(=O)N[C@H](C(=O)NCCc2cc(C(C)(C)C)on2)CC(=O)N1C
Task: Between item I and item II , which reported EC50 is smaller? Could you answer with the label of the item you picked?
Output: I
